experiment: ATG_CRE_CIS: Attagene CIS-FACTORIAL HepG2 Assay for human cAMP Responsive Element (CRE) binding protein 3 (AID 2282926); conditions: HepG2 CRE cis-reporter, Attagene multiplexed mRNA; actives raise or lower the signal
Active and inactive are the calls of the source. The calls were made as follows: active = hit-call score of the fitted dose curve at least 0.9, where 1 is the maximum; inactive = score below 0.9.
Mark one answer only. Choices: TRUE (active), FALSE (inactive)

Examples from the recorded data:
O=C1c2cccc(O)c2C(=O)c2c(O)cc(CO)cc21 = FALSE
Cc1ccc(C(C)(C)C)cc1 = FALSE
COC(F)(F)C(F)(C(F)(F)F)C(F)(F)F = FALSE
O=C1CCCCCN1SSN1CCCCCC1=O = TRUE

Dear all, I need the recorded test outcome for `O=C(Oc1ccccc1)c1ccc2ccccc2c1O` , thank you.
FALSE

Further, for `O=c1cc[nH]c(=S)[nH]1` ?
FALSE

----------
test: ATG_AP_1_CIS: Attagene CIS-FACTORIAL HepG2 Assay for human Activator Protein 1 (AP-1) (AID 2282931); conditions: HepG2 Attagene cis-factorial AP-1 reporter mRNA; actives raise or lower the signal
Active and inactive are the calls of the source. The calls were made as follows: active = hit-call score of the fitted dose curve at least 0.9, where 1 is the maximum; inactive = score below 0.9.
Mark one answer only. Choices: 1 (active), -1 (inactive)

Examples from the recorded data:
O=C(Oc1ccccc1)c1ccc2ccccc2c1O = 1
CC1(C)O[C@@H]2C[C@H]3[C@@H]4C[C@H](F)C5=CC(=O)CC[C@]5(C)[C@H]4[C@@H](O)C[C@]3(C)[C@]2(C(=O)CO)O1 = -1
CC(C)c1ccc(C#N)cc1 = -1
N[C@H]1C(O)O[C@H](CO)[C@H](O)[C@@H]1O (stereo partly drawn) = -1
CC(C)(C)c1n[nH]c(=O)n(N)c1=O = -1
ON(Cc1ccccc1)Cc1ccccc1 = -1
CCOC(=O)[C@H](C)O = -1

// next entry
Dear all, I need the recorded test outcome for `CNC(=S)N(C)C` , thank you.
-1

----------
read-out: Interleukin-1 alpha (IL1a), IL1A (gene 3552); assay: BSK_BE3C_IL1a: BioMAP Diversity Plus: BE3C Assay for Interleukin-1 alpha (IL1a) Biomarker Activity (AID 2283016); details: primary human bronchial epithelial cells; actives raise or lower the signal
Calls of active or inactive are those of the source. How the source made its calls: active means hit-call score of the fitted dose curve at least 0.9, where 1 is the maximum; inactive means score below 0.9.
Mark one answer only. Choices: active, inactive

Examples from the recorded data:
CCCCC/C=C\C/C=C\CCCCCCCC(=O)OC = active
O=C(c1ccc(O)cc1)c1ccc(O)cc1O = inactive

Dear all, I need the recorded test outcome for `CC(C)C(=O)C(C)C` , thank you.
inactive

----------
assay: ATG_BRE_CIS: Attagene CIS-FACTORIAL HepG2 Assay for human Bone Morphogenetic Protein (BMP) Response Element (BRE) (AID 2282933); details: HepG2 BMP response element reporter, Attagene transcription factor profiling; actives raise or lower the signal
Activity calls are given as the source filed them. How the source made its calls: active means hit-call score of the fitted dose curve at least 0.9, where 1 is the maximum; inactive means score below 0.9.
Mark one answer only. Choices: yes (1) for active, no (0) for inactive

Examples from the recorded data:
O=C(O)Cc1c(Cl)ccc(Cl)c1Cl = no (0)
CCCC(C)CCC(C)=O (centres undefined) = no (0)
C=CCOc1c(Br)cc(Br)cc1Br = no (0)
CCC(CO)CO = no (0)
O=C1c2cccc(O)c2C(=O)c2c(O)cc(CO)cc21 = no (0)
CC(=O)Nc1nnc(S(N)(=O)=O)s1 = no (0)
Nc1ccc(-c2ccc(F)cc2)cc1 = no (0)
COC(=O)c1ccc2cc(C(=O)OC)ccc2c1 = no (0)
C=CC(=O)OCC(Br)CBr (centres undefined) = no (0)
CO[Si](OC)(OC)c1ccccc1 = no (0)

Dear all, I need the recorded test outcome for CC(C)(C)C1CCCCC1=O (centres undefined) , thank you.
no (0)

Further, for `CCCCCc1ccc(Cl)cc1` ?
no (0)

Further, for `CCCCCCCC[N+](C)(CCCCCCCC)CCCCCCCC` ?
no (0)

Further, for `Cc1oncc1C(=O)Nc1ccc(C(F)(F)F)cc1` ?
yes (1)

The reported measurements were obtained from PubChem BioAssay (EPA / NIEHS).
